biological target: T1, full-length SARS-CoV-2 nucleocapsid (N) protein (SARS-CoV-2, NC_045512.2 (Wuhan-Hu-1), UniProt P0DTC9); assay: BLI; conditions: one partner purified
T1 construct: also called SARS-CoV-2 N protein; SARS-CoV-2 N/D7-Tag; not shown: D7-tag, C-terminal, kept

{"Binder": "3B7 (antibody, V domains shown, also called 3B7 hmAb) VH: QMQLVQSGAEVKKPGASVRVSCKVSGYSLTELPMHWVRQAPGKGLEWVGSFDPQDAETTYAQRFQGRVAMTEDTSTDTAYMELSSLRSEDTAVYYCATPAPTIVGVVIYALHIWGQGTMVTVSS VL: EIVLTQSPGTLSLSPGERATLSCRASQRVSDNSLAWYQQKPGQAPSLLIFAASIRAPGIPDRISGTGSGTDFTLTINRLEPEDFVVYFCLQYTTSPPLTFGGGTKLEIK", "Result Comparator": "=", "Kd (nM)": 1.94}
{"Binder": "N5 (antibody, V domains shown, also called N5 hmAb) VH: QVQLVQSGAEVKKPGSSVKVSCKASGGTFSSYAIGWVRQAPGQGLEWMGAIIPIFGTTIFAQKFQGRVTITADESTTTAYMELSSLRSDDTAVYYCARGGGGVERGVILTRWFDPWGQGTLVTVSS VL: QSVLTQPPSVSAAPGQKVTLSCSGSSSNIGNNHVSWYQQLPGTAPKLLIYDNNKRPSGIPDRFSGSKSGTSATLGITGLQTGDEADYYCGTWDNSLSAGVFGGGTKLTVV", "Result Comparator": "<", "Kd (nM)": 0.001}
{"Binder": "N83 (antibody, V domains shown, also called N83 hmAb) VH: QVQLQESGPRLVKSSETLSLTCTVSGGSISSGSYYWNWIRQPAGKGLEWIGRVYISGVTSYNPSLKSRVTISLDISKNQFSLQLTSVTAADSAVYYCARGGMAVGAPLYYYFYGMDVWGQGTTVTVSS VL: DVVMTQSPLSLPVTPGEPASISCRSSQSLLHSNGYNYVDWYLQKPGQSPQLMIYLGSNRASGVPDRFSGSGSGTHFTLKISRVEAEDVGVYYCMQALQTLSITFGQGTRLEIK", "Result Comparator": "=", "Kd (nM)": 1.76}
